- assay_details: BSK_SAg_PBMCCytotoxicity: PBMC Cytotoxicity Assessment in the BioMAP Diversity Plus: SAg Assay (AID 2283093);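 also: PBMC viability measured as Alamar Blue reduction fluorescence at 546/580 nm; fitted both ways against DMSO so a hit may be loss or gain of signal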
- cond: primary human HUVEC with PBMC
The source made the active and inactive calls. The calls were made as follows: active = hit-call score of the fitted dose curve at least 0.9, where 1 is the maximum; inactive = score below 0.9.
Parameter call: string, one of 1 (yes) (active), 0 (no) (inactive)

These solved cases illustrate the format of a correct answer.
Request: Test call for this compound, please: O=C(O)C=CC(F)(C(F)(F)F)C(F)(F)F
Response: 0 (no)

Request: Test call for this compound, please: CCOP(=S)(Oc1ccc([N+](=O)[O-])cc1)c1ccccc1 (centres undefined)
Response: 0 (no)

Request: Test call for this compound, please: O=P1(N(CCCl)CCCl)NCCCO1 (centres undefined)
Response: 0 (no)

Request: Test call for this compound, please: ClC(Cl)(Cl)c1ccccc1
Response: 0 (no)

Request: Test call for this compound, please: COP(=O)(O)OC
Response: 0 (no)

Request: Test call for this compound, please: Nc1ccc([N+](=O)[O-])cc1Cl
Response: 0 (no)

Request: Test call for this compound, please: Nc1ccc2ccccc2c1
Response: 0 (no)

Request: Test call for this compound, please: Cc1cccc(N)c1
Response: 0 (no)

Request: Test call for this compound, please: OCC(F)(F)OC(F)(F)C(F)(F)OC(F)(F)C(F)(F)OC(F)(F)CO
Response: 0 (no)

Request: Test call for this compound, please: Cc1ccc2c(c1N)C(=O)c1ccccc1C2=O
Response: 0 (no)

Next:
Request: Test call for this compound, please: CC(Cc1ccc(OCC(=O)O)cc1)NCC(O)c1csc(C(F)(F)F)n1 (centres undefined)
Response: 0 (no)

Request: Test call for this compound, please: CCCN(CCC)c1c([N+](=O)[O-])cc(C(C)C)cc1[N+](=O)[O-]
Response: 1 (yes)

Request: Test call for this compound, please: [N-]=[N+]=[N-]
Response: 0 (no)

Request: Test call for this compound, please: CC(Cl)CN(C)C (centres undefined)
Response: 0 (no)
